test: Content of glyburide and arginine dissolved in the filtered supernatant, Example 2; format: physicochemical; details: 8mg glyburide + 8mg arginine in 10mL water, supersaturated solution at 60℃, 0.45um filter

>  <Record smiles>
COc1ccc(Cl)cc1C(=O)NCCc1ccc(S(=O)(=O)NC(=O)NC2CCCCC2)cc1

>  <solubility>
800 µg/mL

$$$$
